- target desc: T1, biotinylated synthetic human Amyloid beta 1-42 peptide (human, UniProt P05067 672-713, biotinylated (N-terminal biotin in Example 4))
- T1 construct: domain: Amyloid beta 1-42 peptide; Numbers 1-42 count on the Amyloid beta peptide, not on APP; also called biotinylated human Amyloid beta 1-42; N-terminal biotin Abeta 1-42
- T1 sequence (P05067 672-713 limits assumed): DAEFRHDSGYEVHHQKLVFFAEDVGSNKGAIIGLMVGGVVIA
- assay text: SPR (ProteOn); biotinylated peptide on streptavidin chip, scFv in solution
readout name: kon (M⁻¹ s⁻¹)
Write the answer as a number in M⁻¹ s⁻¹, unit excluded.

Known results for binders:
binder	readout name	readout unit	test result
Abet0323b scFv (scFv, V domains shown, not shown: small tags and cut ends, Purified scFv expressed in E. coli) VH: EVQLLESGGGLVQPGGSLRLSCAASTSTFQEDTMWWVRQAPGKGLEWVSVIGPNPKNNAYADSVKGRFTISRDNSKNTLYLQMNSLRAEDTAVYYCAREWMDHSRPYYYYGMDVWGQGTLVTVSS VL: SYELTQPPSVSVSPGQTASITCSGHNLEDKFASWYQQKPGQSPVLVIYRDDKRPSGVPERFSASNSGHTATLTISGTQATDEADYYCSSQDTVTRVFGGGTKLIVL	kon	M⁻¹ s⁻¹	210000
Abet0372 scFv (scFv, V domains shown, not shown: small tags and cut ends, Purified scFv expressed in E. coli) VH: EVQLLESGGGLVQPGGSLRLSCAASSDMFNIETMWWVRQAPGKGLEWVSVIGKGMNNVSYADSVKGRFTISRDNSKNTLYLQMNSLRAEDTAVYYCAREWMDHSRPYYYYGMDVWGQGTLVTVSS VL: SYELTQPPSVSVSPGQTASITCSGHNLEDKFASWYQQKPGQSPVLVIYRDDKRPSGIPERFSASNSGHTATLTISGTQATDEADYYCSSQDTVTRVFGGGTKLTVL	kon	M⁻¹ s⁻¹	243000

Challenge: Using the record for Abet0377 scFv (scFv, V domains shown, not shown: small tags and cut ends, Purified scFv expressed in E. coli) VH: EVQLLESGGGLVQPGGSLRLSCAASGFNFNEQTLWWVRQAPGKGLEWVSVIGVGTKNIAYADTVKGRFTISRDNSKNTLYLQMNSLRAEDTAVYYCAREWMDHSRPYYYYGMDVWGQGTLVTVSS VL: SYELTQPPSVSVSPGQTASITCSGHNTEHKWISWYQQKPGQSPVLVIYRDDKRPSGIPERFSATNSGHTATLTISGTQATDEADYYCSSQDTVTRVFGGGTKLTVL , report its kon.
Response given: 196000

Attribution: patent US20190262327A1
